# assayed-target: human CDK4 and genetically truncated (1-264) cyclin D3 (Homo sapiens)
# Sequence (P11802 whole entry, the tested form may be a part): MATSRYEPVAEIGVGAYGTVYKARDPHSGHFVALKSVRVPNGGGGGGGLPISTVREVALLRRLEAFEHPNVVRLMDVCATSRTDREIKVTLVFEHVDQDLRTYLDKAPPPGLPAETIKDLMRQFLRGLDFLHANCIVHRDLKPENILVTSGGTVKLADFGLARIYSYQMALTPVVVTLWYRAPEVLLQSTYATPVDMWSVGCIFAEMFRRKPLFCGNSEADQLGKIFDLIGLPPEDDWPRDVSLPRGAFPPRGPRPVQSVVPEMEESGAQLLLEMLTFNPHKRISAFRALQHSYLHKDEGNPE
# Sequence (P30281 1-264 partner): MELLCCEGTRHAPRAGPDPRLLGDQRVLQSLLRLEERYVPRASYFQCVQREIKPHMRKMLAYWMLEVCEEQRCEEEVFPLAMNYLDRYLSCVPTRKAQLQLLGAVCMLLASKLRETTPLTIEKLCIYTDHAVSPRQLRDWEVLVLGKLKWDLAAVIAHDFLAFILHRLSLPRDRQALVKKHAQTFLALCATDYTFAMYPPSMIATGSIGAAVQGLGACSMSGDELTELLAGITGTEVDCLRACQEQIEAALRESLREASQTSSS
# procedure-text: Inhibition of CDK4/Cyclin D Retinoblastoma Kinase Activity
# measurement-conditions: apparent Ki, CDK4/truncated cyclin D3, Rb fragment substrate, 25 μM ATP
pKi: −log10 of the molar value. Structures can show the parent of a compound that is named as a salt.
Below, each entry is listed with its recorded pKi.

>  <compound>
COc1ccc(C(=O)N2CCC(Nc3nc(N)c(C(=O)c4c(F)cccc4F)s3)CC2)cc1

>  <assayed-target>
human CDK4 and genetically truncated (1-264) cyclin D3 (Homo sapiens)

>  <pKi>
8.02

$$$$
>  <compound>
CNCCS(=O)(=O)N1CCC(Nc2nc(N)c(C(=O)c3c(F)cccc3F)s2)CC1 [Example K33, Trifluoroacetic Acid Salt]

>  <assayed-target>
human CDK4 and genetically truncated (1-264) cyclin D3 (Homo sapiens)

>  <pKi>
9.19

$$$$
>  <compound>
CN1CCCC(Oc2ccc(S(=O)(=O)N3CCC(Nc4nc(N)c(C(=O)c5c(F)cccc5F)s4)CC3)cn2)C1 (centres unmarked) [Example H16, Hydrochloride]

>  <assayed-target>
human CDK4 and genetically truncated (1-264) cyclin D3 (Homo sapiens)

>  <pKi>
9.55

$$$$
>  <compound>
CN1CC[C@H](Oc2ccc(S(=O)(=O)N3CCC(Nc4nc(N)c(C(=O)c5c(F)cccc5F)s4)CC3)cn2)C1 [Example H28, Hydrochloride]

>  <assayed-target>
human CDK4 and genetically truncated (1-264) cyclin D3 (Homo sapiens)

>  <pKi>
9.00

$$$$
>  <compound>
Nc1nc(NC2CCN(S(=O)(=O)c3ccc(CCN4CCCC4)nc3)CC2)sc1C(=O)c1c(F)cccc1F [Example N2, Hydrochloride Salt]

>  <assayed-target>
human CDK4 and genetically truncated (1-264) cyclin D3 (Homo sapiens)

>  <pKi>
9.31

$$$$
>  <compound>
Nc1nc(NC2CCN(S(=O)(=O)CCCSc3ccccn3)CC2)sc1C(=O)c1c(F)cccc1F

>  <assayed-target>
human CDK4 and genetically truncated (1-264) cyclin D3 (Homo sapiens)

>  <pKi>
8.36

$$$$
>  <compound>
C[C@@H](NC(=O)N1CCC(Nc2nc(N)c(C(=O)c3c(F)cccc3F)s2)CC1)c1ccccc1

>  <assayed-target>
human CDK4 and genetically truncated (1-264) cyclin D3 (Homo sapiens)

>  <pKi>
6.38

$$$$
>  <compound>
Cc1ncc(-c2ccc(S(=O)(=O)N3CCC(Nc4nc(N)c(C(=O)c5c(F)cccc5F)s4)CC3)cc2)[nH]1 [Example F33, Dihydrochloride]

>  <assayed-target>
human CDK4 and genetically truncated (1-264) cyclin D3 (Homo sapiens)

>  <pKi>
9.55

$$$$
>  <compound>
N=C(N)c1ccc(S(=O)(=O)N2CCC(Nc3nc(N)c(C(=O)c4c(F)cccc4F)s3)CC2)cc1

>  <assayed-target>
human CDK4 and genetically truncated (1-264) cyclin D3 (Homo sapiens)

>  <pKi>
9.60

$$$$
>  <compound>
Cn1ccnc1-c1ccc(S(=O)(=O)N2CCC(Nc3nc(N)c(C(=O)c4c(F)cccc4F)s3)CC2)cn1 [Example I3, Trifluoroacetic Acid Salt]

>  <assayed-target>
human CDK4 and genetically truncated (1-264) cyclin D3 (Homo sapiens)

>  <pKi>
8.70

$$$$
>  <compound>
N#Cc1ccccc1S(=O)(=O)N1CCC(Nc2nc(N)c(C(=O)c3c(F)cccc3F)s2)CC1

>  <assayed-target>
human CDK4 and genetically truncated (1-264) cyclin D3 (Homo sapiens)

>  <pKi>
8.44

$$$$
>  <compound>
CC1CCC(NCCS(=O)(=O)N2CCC(Nc3nc(N)c(C(=O)c4c(F)cccc4F)s3)CC2)CC1 (mixture of isomers)

>  <assayed-target>
human CDK4 and genetically truncated (1-264) cyclin D3 (Homo sapiens)

>  <pKi>
8.68

$$$$
>  <compound>
Nc1nc(NC2CCN(C(=O)/C=C/c3ccncc3)CC2)sc1C(=O)c1c(F)cccc1F

>  <assayed-target>
human CDK4 and genetically truncated (1-264) cyclin D3 (Homo sapiens)

>  <pKi>
7.17

$$$$
>  <compound>
COc1ccccc1/C=C\C(=O)N1CCC(Nc2nc(N)c(C(=O)c3c(F)cccc3F)s2)CC1

>  <assayed-target>
human CDK4 and genetically truncated (1-264) cyclin D3 (Homo sapiens)

>  <pKi>
7.74

$$$$
